TARGET: human serum albumin (hSA) (Homo sapiens)
Construct: purchased Albumin Bioscience (Huntsville, AL, USA)
ASSAY_DETAILS: Isothermal titration calorimetry (ITC) of PFAS binding to defatted hSA
RUN_CONDITIONS: KD, 298 K, two sets of sites, low-affinity sites
PARAMETER: Kd (µM)
Unit µM implied. Number only.

Please give the measured Kd for this molecule: O=C(O)C(F)(F)C(F)(F)C(F)(F)C(F)(F)C(F)(F)C(F)(F)C(F)(F)F [PFOA, perfluorooctanoic acid]
29.7

====

TARGET: human serum albumin (hSA) (Homo sapiens)
Construct: purchased Albumin Bioscience (Huntsville, AL, USA)
ASSAY_DETAILS: Isothermal titration calorimetry (ITC) of PFAS binding to defatted hSA
RUN_CONDITIONS: read-out: KD2; 298 K, sequential binding, second binding event
PARAMETER: Kd (µM)
Unit µM implied. Number only.

Please give the measured Kd for this compound: O=C(O)C(F)(OC(F)(F)C(F)(F)C(F)(F)F)C(F)(F)F (stereo not shown)
84.2

====

TARGET: human serum albumin (hSA) (Homo sapiens, UniProt P02768)
Construct: purchased Albumin Bioscience (Huntsville, AL, USA)
Sequence (P02768 25-609): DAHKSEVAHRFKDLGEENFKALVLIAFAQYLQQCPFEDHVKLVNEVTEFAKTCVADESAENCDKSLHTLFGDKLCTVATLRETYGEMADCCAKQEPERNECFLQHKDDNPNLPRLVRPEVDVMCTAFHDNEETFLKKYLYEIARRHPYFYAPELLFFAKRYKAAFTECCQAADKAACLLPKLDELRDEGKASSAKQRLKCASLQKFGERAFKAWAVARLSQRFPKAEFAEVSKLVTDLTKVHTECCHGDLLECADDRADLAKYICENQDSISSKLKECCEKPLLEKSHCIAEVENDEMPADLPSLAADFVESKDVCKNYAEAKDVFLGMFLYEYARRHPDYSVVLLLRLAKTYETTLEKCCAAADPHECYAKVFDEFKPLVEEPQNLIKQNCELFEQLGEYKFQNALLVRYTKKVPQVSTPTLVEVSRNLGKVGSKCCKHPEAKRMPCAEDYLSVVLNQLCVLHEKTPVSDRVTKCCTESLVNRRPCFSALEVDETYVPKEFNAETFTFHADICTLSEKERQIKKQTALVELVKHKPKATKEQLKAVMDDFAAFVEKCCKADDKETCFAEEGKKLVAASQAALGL
ASSAY_DETAILS: Isothermal titration calorimetry (ITC) of PFAS binding to defatted hSA
RUN_CONDITIONS: human, pH 7.4, KD2, 298 K, sequential binding, second binding event
pKd: −log10 of the molar value.
PARAMETER: pKd

Please give the measured pKd for this compound: O=C(O)C(F)(OC(F)(F)C(F)(F)C(F)(F)F)C(F)(F)F (stereo not shown)
< 4.10

====

Some compounds, each annotated with its measured Kd.
TARGET: human serum albumin (hSA) (Homo sapiens)
Construct: purchased Albumin Bioscience (Huntsville, AL, USA)
ASSAY_DETAILS: Isothermal titration calorimetry (ITC) of PFAS binding to defatted hSA
RUN_CONDITIONS: KD, 310 K, one set of sites
Unit µM implied. Number only.

> print(dat)
                                   compound                                    target  measure.unit  reported
1  O=C(O)C(F)(F)OC1(F)OC(F)(F)OC1(F)OC(F)(F)F (centres unmarked) [C6O4]  human serum albumin (hSA) (Homo sapiens)            µM       5.4

// moving on: another record for Kd
Please state recorded Kd (tested on human serum albumin (hSA) (Homo sapiens)) of O=C(O)C(F)(F)C(F)(F)C(F)(F)C(F)(F)C(F)(F)F [PFHxA, Perfluorohexanoic acid]
5.9

====

TARGET: human serum albumin (hSA) (Homo sapiens, UniProt P02768)
Construct: purchased Albumin Bioscience (Huntsville, AL, USA)
ASSAY_DETAILS: Isothermal titration calorimetry (ITC) of PFAS binding to defatted hSA
RUN_CONDITIONS: human, pH 7.4, KD, 298 K, two sets of sites, high-affinity sites
PARAMETER: pKd
A value of pKd is the negative decimal logarithm of a concentration given in moles per litre.

Please state recorded pKd (tested on human serum albumin (hSA) (Homo sapiens, UniProt P02768)) of O=C(O)C(F)(F)C(F)(F)C(F)(F)C(F)(F)C(F)(F)C(F)(F)C(F)(F)F
6.40
